Experiment: Intrinsic clearance in rat liver microsomes
Format: in vitro ADME
Settings: pH 7.4; rat liver microsomes
Checkbox rule: CLint scaled at 1 µM lower than 1000 mL/min/kg = MET; CLint scaled at 1 µM not lower than 1000 mL/min/kg = NOT MET.

Input Cc1nc(C)c2c(n1)sc1c(N3CCCC3)nccc12 [22k] ; condition: CLint scaled at 1 µM strictly below 1000 mL/min/kg. Does it hold?
NOT MET

What do you get for COc1ccc(CNc2nccc3c2sc2nc(C)nc(C)c23)cc1F [22j] ?
MET

Record: Cc1nc(C)c2c(n1)sc1c(N3CC4(C3)CC(F)(F)C4)ncnc12 [14h]
MET

// query: Cc1nc(C)c2c(n1)sc1c(N3CCCCC3)nccc12 [22e]
NOT MET

Next record, please: Cc1nc(C)c2c(n1)sc1c(N3CCC(F)(F)C3)nccc12 [22f]
NOT MET

# iterate: Cc1nc(C)c2c(n1)sc1c(NCc3ccc(C(C)(C)O)cc3)nccc12 [22g]
MET

Next up: Cc1nc(C)c2c(n1)sc1c(N3CC4CC4C3)ncnc12 (stereo not shown) [14i]
NOT MET
